All figures here come from patent US20060116390A1.

system: HCV proteins in Rep5.1 cells (replicon cell line); experiment: Inhibitory activity of HCV: cell-based ELISA in replicon cell line Rep5.1 (decrease of HCV proteins); parameters: species or system hepatitis C virus; details: Hepatitis C virus, 72 h, Rep5.1 cells, 72 hours with drug, decrease of HCV proteins measured by HCV antibody; Table 1; read-out: Level (IC50 values classified)
pIC50: −log10 of the molar value.
Quick reference for pIC50 among some molecules

Worked set:
[
  {
    "molecule": "O=C(OCCCc1cccs1)C1=CNC(=S)NC1CF (centres unmarked)",
    "pIC50": "5.00 to 6.00"
  },
  {
    "molecule": "CC1=C(C(=O)OCCc2cccc(C(F)(F)F)c2)C(CO)NC(=S)N1 (centres unmarked)",
    "pIC50": "> 6.00"
  },
  {
    "molecule": "CC1=C(C(=O)OCc2ccc3c(c2)OCO3)CNC(=S)N1",
    "pIC50": "5.00 to 6.00"
  },
  {
    "molecule": "CCc1ccc(CCOC(=O)C2=C(C)NC(=S)NC2)o1",
    "pIC50": "> 6.00"
  },
  {
    "molecule": "CC1=C(C(=O)OCc2cc(Cl)ccc2[N+](=O)[O-])C(CF)NC(=S)N1 (centres unmarked)",
    "pIC50": "4.70 to 5.00"
  }
]

INPUT: Item under review: CC1=C(C(=O)OCCc2cccc(Cl)c2)C(COC(=O)OCCOC(=O)c2ccccc2)NC(=S)N1 (centres unmarked) . Reported pIC50?
OUTPUT: > 6.00

INPUT: Look up pIC50 for this molecule: CC1=C(C(=O)OCc2ccc(F)cc2Cl)C(CO)NC(=S)N1 (centres unmarked)
OUTPUT: < 4.70

INPUT: pIC50 lookup needed for CC1=C(C(=O)OCCc2nc3ccccc3o2)CNC(=S)N1 , thanks.
OUTPUT: 5.00 to 6.00

INPUT: # query: pIC50 of entry CC1=C(C(=O)OCCc2cccs2)CNC(=S)N1
OUTPUT: > 6.00

INPUT: I'd like to know its pIC50. The molecule in question is CC1=C(C(=O)OCc2cc(F)c(F)c(F)c2)C(CF)NC(=S)N1 (centres unmarked)
OUTPUT: 5.00 to 6.00

INPUT: pIC50 lookup needed for CCOC(=O)COC(=O)OCC1NC(=S)NC(C)=C1C(=O)OCCc1cccc([N+](=O)[O-])c1 (centres unmarked) , thanks.
OUTPUT: 5.00 to 6.00

INPUT: Param item = CC1=C(C(=O)OCCc2cccc(Cl)c2)C(CO)NC(=S)N1 (centres unmarked) ; retrieve measured pIC50.
OUTPUT: > 6.00

###

Reported IC50 values follow for various molecules
Tested on: HCV proteins in Rep5.1 cells (replicon cell line)
Test: Inhibitory activity of HCV: cell-based ELISA in replicon cell line Rep5.1 (decrease of HCV proteins)
Set-up: species or system hepatitis C virus
Settings: Hepatitis C virus, 72 h, Rep5.1 cells, 72 hours with drug, decrease of HCV proteins measured by HCV antibody; Table 1; read-out: Level (IC50 values classified)
Description: In order to, screen and evaluate the anti-HCV therapeutic agents in cell level, the following experiments are carried out using a replicon cell line, Rep5.1 [Lohmann, et al., Replication of subgenomic hepatitis C virus RNAs in a hepatoma cell line. […] Rep5.1 cells, the replicon cell line, are cultured in DMEM-10 containing 500 μg/ml of G418. […] After 72 hours, the remaining cells are fixed by methanol/acetone (50/50, v/v), and the decrease of HCV proteins is measured by using HCV antibody. […]

Consider the reported IC50 for these molecules:
[
  {
    "molecule": "CCOc1cc(COC(=O)C2=C(C)NC(=S)NC2)cc(OCC)c1",
    "IC50": "< 1000 nM"
  },
  {
    "molecule": "COc1ccc(Cl)cc1CCOC(=O)C1=C(C)NC(=S)NC1CO (stereo not drawn)",
    "IC50": "< 1000 nM"
  },
  {
    "molecule": "CC1=C(C(=O)OCCc2ccsc2Br)C(CO)NC(=S)N1 (stereo not drawn)",
    "IC50": "1000 to 10000 nM"
  },
  {
    "molecule": "CC1=C(C(=O)OCc2nc3ccccc3n2C)CNC(=S)N1",
    "IC50": "> 20000 nM"
  },
  {
    "molecule": "CC1=C(C(=O)OCCc2ccc(Cl)cc2Cl)C(CO)NC(=S)N1 (stereo not drawn)",
    "IC50": "< 1000 nM"
  },
  {
    "molecule": "CC1=C(C(=O)OCc2nc3ccccc3o2)CNC(=S)N1",
    "IC50": "1000 to 10000 nM"
  },
  {
    "molecule": "COc1ccccc1CCOC(=O)C1=C(C)NC(=S)NC1CO (stereo not drawn)",
    "IC50": "10000 to 20000 nM"
  },
  {
    "molecule": "CC1=C(C(=O)OCCCc2ccsc2)C(CO)NC(=S)N1 (stereo not drawn)",
    "IC50": "1000 to 10000 nM"
  }
]

Read the next record carefully.
INPUT: # query: IC50 | item CC1=C(C(=O)OC2Cc3ccccc3C2)CNC(=S)N1 | system: HCV proteins in Rep5.1 cells (replicon cell line)
OUTPUT: < 1000 nM
